test system: strain MNH27256; test: Antibiotic sensitivity test, disk diffusion method; format: cell-based, Megasphaera sp.
Endpoint: Sensitivity or resistance of strain MNH27256 to the antibiotic

- CO/N=C(\C(=O)N[C@@H]1C(=O)N2C(C(=O)O)=C(CSc3nc(=O)c(=O)[nH]n3C)CS[C@H]12)c1csc(N)n1: resistant
- CC1(C)S[C@@H]2[C@H](NC(=O)[C@H](N)c3ccccc3)C(=O)N2[C@H]1C(=O)O: resistant

====

system: strain MNH27256; experiment: Antibiotic sensitivity test, disk diffusion method; type: cell-based, Megasphaera sp.
Endpoint: Sensitivity or resistance of strain MNH27256 to the antibiotic

* CCC[C@@H]1C[C@@H](C(=O)N[C@@H]([C@H]2O[C@H](SC)[C@H](O)[C@@H](O)[C@H]2O)[C@@H](C)O)N(C)C1 | sensitive
* O=C(O)c1cn(C2CC2)c2cc(N3CCNCC3)c(F)cc2c1=O | sensitive
* CC[C@H]1OC(=O)[C@H](C)[C@@H](O[C@H]2C[C@@](C)(OC)[C@@H](O)[C@H](C)O2)[C@H](C)[C@@H](O[C@@H]2O[C@H](C)C[C@H](N(C)C)[C@H]2O)[C@](C)(O)C[C@@H](C)C(=O)[C@H](C)[C@@H](O)[C@]1(C)O | sensitive

# credit: patent US20250332201A1
